# Tested on: HCC-2998 colon
# assay_notes: NCI-60 one-dose screen, 48 h (100 = growth as untreated, 0 = no growth, -100 = all killed)
# condition_details: 10 µM unless noted
This is part of a sample that, as a whole, favours compounds with a hit. Of some 83,000 tested, about 20% had one in any assay. Where a SMILES comes first, the peptide text is derived from it. The star is where a group is joined. Trt = c1ccc(C(c2ccccc2)(c2ccccc2)*)cc1; Cbz = O=C(OCc1ccccc1)*
A collection of compounds and their measured growth

- compound: "COC(=O)C(CSC(c1ccccc1)(c1ccccc1)c1ccccc1)NC(=O)C(CC(N)=O)NC(=O)OCc1ccccc1 (stereo not drawn) (Cbz-Asn-Cys(Trt)-OMe; configuration not given here)"
  display_unit: "%"
  growth: -18.7
- compound: "CCCCCC(CCCCC)C(=O)O"
  display_unit: "%"
  growth: 119
- compound: "Cc1ccnc2c1ccc1c(C)ccnc12"
  display_unit: "%"
  growth: 51.3
- compound: "Cn1c2ccccc2c2nnc(N/N=C/c3ccccn3)nc21"
  display_unit: "%"
  growth: 34.5
- compound: "CC(C)(C)CC(C)(C)c1ccc(OCCSC(=N)N)cc1"
  display_unit: "%"
  growth: -16
- compound: "CN(C)c1ccc(N=Nc2cccc3ccccc23)cc1"
  display_unit: "%"
  growth: 69.2
- compound: "CC(=Nc1ccc(N(C)C)cc1)c1ccccc1"
  display_unit: "%"
  growth: 58.2
- compound: "O=C1C=CC(=O)N1C1c2ccccc2-c2ccccc21"
  display_unit: "%"
  growth: 114
- compound: "CCC1OC(OC)C=CC1=O (stereo unspecified)"
  display_unit: "%"
  growth: 122
- compound: "CN(C)C(=O)SC1=C(c2c(Cl)cccc2Cl)C(=O)c2ccccc21"
  display_unit: "%"
  growth: 114
- compound: "NC(N)=N/N=C/c1ccc([N+](=O)[O-])o1"
  display_unit: "%"
  growth: 88
